Would you mind telling me the reported Raw Data of each entry?
measuredTarget: human PPARγ- LBD (Homo sapiens, UniProt P37231)
Construct: a mixture of a human PPARγ- LBD labelled with glutathione S-transferase (GST)
Sequence (P37231 238-503 limits assumed): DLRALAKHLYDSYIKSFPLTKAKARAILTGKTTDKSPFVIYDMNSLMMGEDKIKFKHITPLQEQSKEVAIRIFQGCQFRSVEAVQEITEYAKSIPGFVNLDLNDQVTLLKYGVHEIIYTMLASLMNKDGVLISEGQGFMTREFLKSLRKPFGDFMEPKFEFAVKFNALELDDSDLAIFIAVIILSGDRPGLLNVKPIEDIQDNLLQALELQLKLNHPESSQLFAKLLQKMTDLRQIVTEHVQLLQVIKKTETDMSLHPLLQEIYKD
experimentSummary: Lanthascreen TR-FRET PPARγ competitive binding assay
experimentalParameters: TR-FRET, 4 µM
Answers are plain numbers, in RLU.

smilesRepresentation: C=CCc1ccc(OCC(=O)Nc2cccc(Cl)c2)c(OC)c1
property: Raw Data
unitSymbol: RLU
recordedMeasurement: 1.752

smilesRepresentation: C=CCc1ccc(OCC(=O)Nc2ccccc2Cl)c(OC)c1
property: Raw Data
unitSymbol: RLU
recordedMeasurement: 1.247

# per-item lookup of Raw Data; items listed below
1. C=CCc1ccc(OCC(=O)Nc2ccccc2C)c(OC)c1
2. C=CCc1ccc(OCC(=O)Nc2ccccc2)c(OC)c1

a:
1. 1.33
2. 1.717

Fill in Raw Data for each of the 2 compounds listed.
1. C=CCc1ccc(OCC(=O)Nc2cccc(C(F)(F)F)c2)c(OC)c1
2. C=CCc1ccc(OCC(=O)Nc2ccc([N+](=O)[O-])cc2)c(OC)c1

a:
1. 1.542
2. 1.779

====

measuredTarget: human PPARγ- LBD (Homo sapiens, UniProt P37231)
Construct: a mixture of a human PPARγ- LBD labelled with glutathione S-transferase (GST)
experimentSummary: Lanthascreen TR-FRET PPARγ competitive binding assay
experimentalParameters: TR-FRET, 100 µM
Hi! Could you tag entries with Raw Data - Background below 0.5 RLU as True, and those at or above as False? Much appreciated.

Solved entries (count: 4):
smilesRepresentation: C=CCc1ccc(OCC(=O)Nc2ccccc2)c(OC)c1
measuredTarget: human PPARγ- LBD (Homo sapiens, UniProt P37231)
assignedLabel: True
--
smilesRepresentation: C=CCc1ccc(OCC(=O)Nc2ccccc2C)c(OC)c1
measuredTarget: human PPARγ- LBD (Homo sapiens, UniProt P37231)
assignedLabel: True
--
smilesRepresentation: C=CCc1ccc(OCC(=O)Nc2ccc([N+](=O)[O-])cc2)c(OC)c1
measuredTarget: human PPARγ- LBD (Homo sapiens, UniProt P37231)
assignedLabel: True
--
smilesRepresentation: C=CCc1ccc(OCC(=O)Nc2ccccc2Cl)c(OC)c1
measuredTarget: human PPARγ- LBD (Homo sapiens, UniProt P37231)
assignedLabel: False

q: Hello, is Raw Data - Background of the following compound strictly smaller than 0.5 RLU? C=CCc1ccc(OCC(=O)Nc2cccc(Cl)c2)c(OC)c1
a: False

====

measuredTarget: human PPARγ- LBD (Homo sapiens, UniProt P37231)
Construct: a mixture of a human PPARγ- LBD labelled with glutathione S-transferase (GST)
experimentSummary: Lanthascreen TR-FRET PPARγ competitive binding assay
experimentalParameters: TR-FRET, 20 µM
property: Raw Data (RLU)
Numbers only, in RLU.

// worked examples, Raw Data included
molecule: C=CCc1ccc(OCC(=O)Nc2ccccc2C)c(OC)c1 [Compound 1c]
recordedMeasurement: 0.1617
//
molecule: C=CCc1ccc(OCC(=O)Nc2ccccc2Cl)c(OC)c1 [Compound 1f]
recordedMeasurement: 0.799
//
molecule: C=CCc1ccc(OCC(=O)Nc2cccc(Cl)c2)c(OC)c1 [Compound 1e]
recordedMeasurement: 1.018

// each listed molecule needs a value for Raw Data
1. C=CCc1ccc(OCC(=O)Nc2ccc([N+](=O)[O-])cc2)c(OC)c1 [Compound 1b]
2. C=CCc1ccc(OCC(=O)Nc2cccc(C(F)(F)F)c2)c(OC)c1 [Compound 1d]
3. C=CCc1ccc(OCC(=O)Nc2ccccc2)c(OC)c1 [Compound 1a]

a:
1: 1.199; 2: 0.593; 3: 1.047

Reference source: paper PMC10180488
